Attribute: Mean OD (570 nm)
test system: human colon cancer cell line (HCT-116); assay: MTT anti-proliferative assay, HCT-116 (Examples 3-12); type: cell-based; details: 200 μg/ml, 48 hours

{"columns": ["compound", "Mean OD (570 nm)"],
 "data": [
  ["COc1cc(/C=C/C(=O)OCc2ccccc2)ccc1O [benzyl ferulate]", 0.0207],
  ["O=C(O)C=CC=Cc1ccccc1", 0.3232],
  ["O=C(O)/C=C/c1ccc(O)cc1 [p-coumaric acid, para-coumaric acid, reference compound]", 0.5216],
  ["CC(=O)O[C@H]1C(=O)c2c(O)cc(O)cc2O[C@@H]1c1ccccc1 [pinobanksin 3-O-acetate, pinobanksin-3-acetate]", 0.0477],
  ["COc1ccc(/C=C/C(=O)OCc2ccccc2)cc1O [benzyl isoferulate]", 0.0264],
  ["O=C1C[C@@H](c2ccccc2)Oc2cc(O)cc(O)c21 [Pinocembrin, reference compound]", 0.0045],
  ["COc1cc(O)c(C(=O)/C=C/c2ccccc2)c(O)c1", 0.2482],
  ["C=C(C)CCOC(=O)C=Cc1ccc(O)c(O)c1 [3-methyl-3-butenyl caffeate, 3-methyl-3-butenyl caffeic acid]", 0.0202]
]}

---

tested on: human gastric carcinoma cell line (NCI-N87); test: MTT anti-proliferative assay, NCI-N87 (Examples 3-12); type: cell-based; conditions: Homo sapiens, NCI-N87, 48 h, 200 μg/ml

{"columns": ["compound", "inhibition at 200 µg/mL"],
 "data": [
  ["COc1ccc(/C=C/C(=O)OCc2ccccc2)cc1O [benzyl isoferulate]", "80%"],
  ["O=C(O)/C=C/c1ccc(O)cc1 [p-coumaric acid, para-coumaric acid, reference compound]", "17.3%"],
  ["O=C1C[C@@H](c2ccccc2)Oc2cc(O)cc(O)c21 [Pinocembrin, reference compound]", "72.5%"],
  ["O=C(O)C=CC=Cc1ccccc1", "42.6%"],
  ["COc1cc(/C=C/C(=O)OCc2ccccc2)ccc1O [benzyl ferulate]", "87%"]
]}

---

Attribute: % inhibition
tested on: human colorectal adenocarcinoma cells (DLD-1); experiment: MTT anti-proliferative assay, DLD-1 (Examples 3-12); type: cell-based; conditions: 200 μg/ml, 48 hours
readout type: % inhibition (%)

{"columns": ["compound", "experimental value"],
 "data": [
  ["COc1cc(O)c2c(=O)cc(-c3ccccc3)oc2c1", 92.8],
  ["COc1ccc(/C=C/C(=O)OCc2ccccc2)cc1O [benzyl isoferulate]", 90.81],
  ["COc1cc(/C=C/C(=O)OCc2ccccc2)ccc1O [benzyl ferulate]", 86.02],
  ["O=C(O)/C=C/c1ccc(O)cc1 [p-coumaric acid, para-coumaric acid, reference compound]", 14.34],
  ["COc1cc(O)c(C(=O)/C=C/c2ccccc2)c(O)c1", 83.3]
]}
